conditions: in ethanol, 278.75 K
property_measured: solubility (mole fraction)
Kindly provide the number alone.

get_value(item= CC(=O)S[C@@H]1CC2=CC(=O)CC[C@]2(C)[C@H]2CC[C@@]3(C)[C@@H](CC[C@@]34CCC(=O)O4)[C@H]12 , readout=solubility (mole fraction)) returns 0.0017

----------
settings: in n-propanol, 298.15 K
property_measured: solubility (mole fraction)

get_value(item= CC(=O)S[C@@H]1CC2=CC(=O)CC[C@]2(C)[C@H]2CC[C@@]3(C)[C@@H](CC[C@@]34CCC(=O)O4)[C@H]12 , readout=solubility (mole fraction)) returns 0.00488

----------
conditions: in n-propanol, 283.65 K
property_measured: solubility (mole fraction)
Kindly provide the number alone.

get_value(item= CC(=O)S[C@@H]1CC2=CC(=O)CC[C@]2(C)[C@H]2CC[C@@]3(C)[C@@H](CC[C@@]34CCC(=O)O4)[C@H]12 , readout=solubility (mole fraction)) returns 0.0026
